test system: SNB-75 CNS; assay: NCI-60 one-dose screen, 48 h (100 = growth as untreated, 0 = no growth, -100 = all killed); settings: 10 µM
Compounds without any hit were thinned out: in the full panel of roughly 83,000, 20% have a hit. Activity calls are given as the source filed them. How the source made its calls: active means growth percent below 10; inactive means the rest.
ATTRIBUTE MEASURED: growth

* CC(C)(C)c1ccc(NCc2cn(-c3ccc(C(=O)O)cc3)nc2-c2ccc(C#N)cc2)cc1 | 59.1% (inactive)
* O=c1[nH][nH]c(Nc2ccccc2)c1N=Nc1ccc(F)cc1 | 59.4% (inactive)
* O=C1Nc2cc(Cl)ccc2/C1=C/c1cccc(OCc2ccccc2)c1 | 16.8% (inactive)

Task: Could you tell me which growth is on file for COc1ccc2c(c1)N=C(C(=O)O)/C2=C/c1sc(Nc2ccc(O)cc2)nc1O ?
Result: 67.2% (inactive)

Task: Could you tell me which growth is on file for COc1ccc(C(=O)NC(=S)N2CCN(c3ncnc4c3cnn4-c3ccccc3)CC2)cc1 ?
Result: 31.7% (inactive)

###

system: SF-268 CNS; assay: NCI-60 one-dose screen, 48 h (100 = growth as untreated, 0 = no growth, -100 = all killed); conditions: 10 µM
About 83,000 compounds went through this panel and 20% of them were active in at least one assay; those are over-represented in the sample as a whole.
ATTRIBUTE MEASURED: growth (%)
Hi! Could you send only the number? It should be in %, unit omitted.

• CCOc1ccc(/C=N/NC(=O)Cn2nc(Cc3ccccc3)c3onc(C)c3c2=O)cc1 = -9.54
• CC(C)Sc1nc(NC2CC2)c(C#N)c(-c2ccccc2)n1 = 61
• CC1=C2C(=C[C@@](C)(CO)[C@@H]2O)/C(=N\N)[C@](C)(O)C12CC2 = -3.67
• CC(C)CCSc1nc(NC2CC2)c(C#N)c(-c2ccc(C(C)C)cc2)n1 = 121
• Cc1ccc(/C=C/C(=O)c2ccc(S(=O)(=O)NCCNc3nc(Nc4ccc(F)cc4)nc(N(C)C)n3)cc2)cc1 = 34.6

Task: Could you tell me which growth is on file for CN1CCN(c2ccc(C(=O)/C=C/c3cc(C(F)(F)F)ccc3Cl)cc2)CC1 ?
Result: 1.69

Task: Could you tell me which growth is on file for N#Cc1c(-c2ccc(F)cc2)nc(SCc2ccc(F)cc2)nc1N1CCOCC1 ?
Result: 43.4

Task: Could you tell me which growth is on file for C[C@H]1[C@H](C)CC[C@]2(COC(=O)CCC(=O)NCC#CCN3CCNCC3)CC[C@]3(C)C(=CC[C@@H]4[C@@]5(C)CCCNC(C)(C)[C@@H]5CC[C@]43C)[C@H]12 ?
Result: 77.1

Task: Could you tell me which growth is on file for COc1ccc(/C=N/N=C(\C)c2ccc3c(c2)Nc2ccccc2S3)cc1O ?
Result: 57.2

###

tested on: BT-549 breast; assay: NCI-60 one-dose screen, 48 h; settings: 10 µM
This is part of a sample that, as a whole, favours compounds with a hit. Of some 83,000 tested, about 20% had one in any assay. Activity calls are given as the source filed them. Rule for the calls: active = growth percent below 10; inactive = the rest.
The categories you may choose from are active, inactive

• O=c1[nH]c2ccc(Cl)cc2cc1CSc1ccc(Nc2nccc(-c3ccc(Cl)cc3)n2)cc1 = inactive
• CCCCCCCCCCCCCCCCCCCC(=O)NCCc1c[nH]c2ccc(O)cc12 = inactive
• O/N=C(\CSc1nnc(-c2c[nH]c3ccccc23)n1-c1ccccc1)c1ccc(Br)cc1 = active
• C/C(=N\NC(N)=S)c1ccc(Nc2nc(SC(C)C)nc(-c3ccccc3)c2C#N)cc1 = inactive
• Cc1ccc(/C(CSc2nnc(-c3c[nH]c4ccccc34)n2-c2ccccc2)=N/O)cc1 = active

Task: Test call, this compound: CCOC(=O)N/C(=C1/OCCN1C)[P+](c1ccccc1)(c1ccccc1)c1ccccc1
Result: inactive

Task: Test call, this compound: O=C(Cn1cc(CSc2nnc3oc4ccccc4n23)nn1)Nc1cccc(Cl)c1
Result: inactive

Task: Test call, this compound: N#Cc1c(NC(=O)c2ccc(C(F)(F)F)cc2C(F)(F)F)sc2c1CCC(=O)C2
Result: active

Task: Test call, this compound: COc1ccc(/C(CSc2nnc(-c3c[nH]c4ccccc34)n2-c2ccccc2)=N/O)cc1
Result: inactive

Task: Test call, this compound: O=C(NO)c1ccc(Cn2ccc3c(Nc4ccccc4)ncnc32)cc1
Result: inactive

Task: Test call, this compound: COc1ccc(/C=C/C(=O)c2ccc(NC(=O)CN3C(=O)NC(C)(c4ccccc4)C3=O)cc2)cc1 (centres undefined)
Result: inactive

Task: Test call, this compound: CCCS(=O)(=O)c1oc(-c2ccc(F)cc2)nc1S(=O)(=O)c1ccc(F)cc1
Result: active

Task: Test call, this compound: Cc1ccc2nc(-c3ccc(-c4nnc(SCC(=O)Nc5ccc(Cl)cc5)o4)cc3)[nH]c2c1
Result: inactive

Task: Test call, this compound: CC(=C(c1ccc(OCCN2CCCCCC2)cc1)c1ccc(OCCN2CCCCCC2)cc1)c1ccc(Cl)cc1
Result: active

###

The molecules listed here are annotated with their growth.
tested on: CAKI-1 renal; experiment: NCI-60 one-dose screen, 48 h (100 = growth as untreated, 0 = no growth, -100 = all killed); details: 10 µM
About 83,000 compounds went through this panel and 20% of them were active in at least one assay; those are over-represented in the sample as a whole.
Hi! Could you send only the number? It should be in %, unit omitted.

In the examples that follow, each entry is paired with its recorded growth.
• CCN1CCN(c2ccc(NC(=O)Nc3ccc4c(c3F)CCN4c3ccnc(C(=O)NC)c3)cc2C(F)(F)F)CC1 = -87.9
• O=C(CS(=O)(=O)c1oc(-c2ccc(Cl)cc2)nc1S(=O)(=O)c1ccc(Cl)cc1)N1CCOCC1 = 30.9
• COc1ccccc1[C@H]1C(C(=O)c2ccc(O)cc2)C2(N[C@@H]1c1ccccc1)C(=O)Nc1ccc(Br)cc12 (stereo partly drawn) = 18.7
• [2H]C([2H])([2H])Oc1ccc2ncc(C#Cc3cncc(C(=O)Nc4ccc(CN5CCN(C)CC5)c(C(F)(F)F)c4)c3)n2n1 = -78.7
• Cc1ccc(NC(=O)NCn2c(=O)[nH]c3ccccc3c2=O)cc1 = 61.4

Task: Could you tell me which growth is on file for Cc1cccc(NC(=O)CSc2nc3ccc(F)cc3c(=O)n2-c2ccc(Cl)cc2)c1C ?
Result: -21.6

Task: Could you tell me which growth is on file for O=C1Nc2cc(Cl)ccc2/C1=C/c1cccc(OCc2ccc(Br)cc2F)c1 ?
Result: 26.9

Task: Could you tell me which growth is on file for COc1ccc(N(C)c2cc(C#N)nc3ccccc23)cc1N ?
Result: 26.1

Task: Could you tell me which growth is on file for COc1cc2c(cc1OC)/C(=C\c1sc(Nc3ccc(O)cc3)nc1O)C(C(=O)O)=N2 ?
Result: 26.9

Task: Could you tell me which growth is on file for COc1ccc(-c2ccc(SCC(=O)Nc3ccc(C#N)cc3)nn2)cc1 ?
Result: 81.4

Task: Could you tell me which growth is on file for O=C(O)CCCCCCCCCCN1C(=O)/C(=C/c2cnc(-c3ccc(Cl)cc3)s2)SC1=S ?
Result: 12.2

Task: Could you tell me which growth is on file for CC1(C)CC[C@]2(C(=O)N3CCOCC3)CC[C@]3(C)C(=CC[C@@H]4[C@@]5(C)CC[C@H](NCO)C(C)(C)[C@@H]5CC[C@]43C)[C@H]2C1 ?
Result: -96.2

Task: Could you tell me which growth is on file for O=C(CSc1nnc(-c2ccc3nc(-c4ccccc4)[nH]c3c2)o1)Nc1ccc(Br)cc1 ?
Result: 76.2

Task: Could you tell me which growth is on file for O=C(CSc1nnc(-c2c[nH]c3ccccc23)n1-c1ccccc1)c1ccc(Cl)cc1 ?
Result: 64.5

Task: Could you tell me which growth is on file for CCOC(=O)c1sc(N/N=C(\C)c2ccc3c(c2)Nc2ccccc2S3)nc1C ?
Result: 32.2

Task: Could you tell me which growth is on file for CN1CCN(c2ccc(Nc3nc(NCCNC(=O)c4ccc(C(F)(F)F)cc4)c4sccc4n3)cc2)CC1 ?
Result: 22.5

Task: Could you tell me which growth is on file for COc1cc(OC(F)(F)F)ccc1C(=O)Nc1sc2c(c1C#N)CCC(=O)C2 ?
Result: 71.6

Task: Could you tell me which growth is on file for O=C1Nc2ccc(Cl)cc2/C1=C/c1cccc(OCc2ccccc2)c1 ?
Result: 34.6

###

tested on: HS 578T breast; assay: NCI-60 one-dose screen, 48 h (100 = growth as untreated, 0 = no growth, -100 = all killed); settings: 10 µM
Compounds without any hit were thinned out: in the full panel of roughly 83,000, 20% have a hit.
ATTRIBUTE MEASURED: growth (%)
Hi! Could you send only the number? It should be in %, unit omitted.

In the examples that follow, each entry is paired with its recorded growth.
• O=c1nc(-c2ccccc2)cc(-c2cc3ccccc3nc2Cl)[nH]1 = 69.6
• CCCCCCCCCCCCCCCCCCCC(=O)NCCc1c[nH]c2ccc(OC(=O)NOCCOCCOCCOCCOCCOCCOCCOCCOCCOCCOCCOCCOCCOCCOCCOCCOCCOCCOCCOCCOCCOCCOC)cc12 = -18.9
• Cc1ccc(C(C)C)cc1NC(=O)c1ccccc1N(C)C = 110

Okay, next one:
Task: Could you tell me which growth is on file for COc1ccccc1[C@H]1C(C(=O)c2ccc(O)cc2)C2(N[C@@H]1c1ccccc1)C(=O)Nc1ccc(Br)cc12 (some centres undefined) ?
Result: 36.3
